# Lookup of reported percent inhibition of human Factor XI mRNA keyed by entry
# Test system: human Factor XI mRNA
# assay.text: Dose-dependent inhibition in HepB3 cells, electroporation (Example 7)
# Type: cell-based
# study.conditions: 370.37 nM, approx. 16 h
Just the number in %, nothing appended.

Answered examples (5):
substance	experimental.result
416838 (antisense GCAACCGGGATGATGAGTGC; 5-10-5 gapmer, wing sugar chemistry not given here, further chemistry not given here) [compound 416838]	28
416825 (antisense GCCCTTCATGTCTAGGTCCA; 5-10-5 gapmer, wing sugar chemistry not given here, further chemistry not given here) [compound 416825]	48
416850 (antisense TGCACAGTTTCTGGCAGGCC; 5-10-5 gapmer, wing sugar chemistry not given here, further chemistry not given here) [compound 416850]	51
416858 (antisense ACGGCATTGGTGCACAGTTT; 5-10-5 gapmer, wing sugar chemistry not given here, further chemistry not given here) [compound 416858]	52
416864 (antisense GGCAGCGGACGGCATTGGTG; 5-10-5 gapmer, wing sugar chemistry not given here, further chemistry not given here) [compound 416864]	6

Query :: Form field: reported percent inhibition of human Factor XI mRNA of 416999 (antisense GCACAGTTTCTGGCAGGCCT; 2-13-5 gapmer, wing sugar chemistry not given here, further chemistry not given here) [compound 416999]
Result :: 62

Provenance of the data: patent US20120083522A1
